Experiment: Selectivity index, ratio of CC50 for cytotoxicity against dog MDCK cells to IC50 for anti-viral activity against Influenza A virus (A/Puerto Rico/8/34 infected in MDCK cells
Assay type: toxicity, cell-based
Settings: read-out: Selectivity Index
The following compounds are listed with their measured selectivity ratio values.

// lookup selectivity ratio for `CC(=O)c1cc(C)c(O)c(Cc2[nH]c3ccc(-c4ccccc4)cc3c2Cc2c(O)c(C)cc(C(C)=O)c2O)c1O`
> 11.5

Moving on to `CC(=O)c1cc(C)c(O)c(Cc2[nH]c3ccc(-c4ccc(Cl)cc4)cc3c2Cc2c(O)c(C)cc(C(C)=O)c2O)c1O`
> 11.1

Moving on to `COc1ccc2[nH]c(Cc3c(O)c(C)cc(C(C)=O)c3O)c(Cc3c(O)c(C)cc(C(C)=O)c3O)c2c1`
> 18.9

Moving on to `COc1ccc2cc(-c3ccc4[nH]c(Cc5c(O)c(C)cc(C(C)=O)c5O)c(Cc5c(O)c(C)cc(C(C)=O)c5O)c4c3)ccc2c1`
> 14.2

Moving on to `COc1ccc2c(Cc3c(O)c(C)cc(C(C)=O)c3O)c(Cc3c(O)c(C)cc(C(C)=O)c3O)[nH]c2c1`
> 23.8

Moving on to `CC(=O)c1cc(C)c(O)c(Cc2[nH]c3cc(C)ccc3c2Cc2c(O)c(C)cc(C(C)=O)c2O)c1O`
> 19.9

Moving on to `COc1cc(-c2ccc3[nH]c(Cc4c(O)c(C)cc(C(C)=O)c4O)c(Cc4c(O)c(C)cc(C(C)=O)c4O)c3c2)cc(OC)c1OC`
> 37.5
